System: purified human eosinophils
Assay: In vitro eosinophil chemotaxis assay (Transwell)
Format: cell-based
Settings: Homo sapiens, Eosinophil; 1 μM histamine in lower chamber; read-out: IC50 in blocking 1 μM histamine-induced eosinophil chemotaxis
recordedEndpoint: IC50 (nM)
Your answer should be a plain number; it is taken to be in nM.

molecule="S=C(NC1CCCCC1)N1CCC(c2cnc[nH]2)CC1 [thioperamide]" value=519

Continue with the molecule presented below.
The recorded IC50 for entry CN1CCN(C(=O)c2cc3cc(Cl)ccc3[nH]2)CC1 [Compound A] equals 86
